# SYSTEM UNDER TEST: hGYS2 enzyme (recombinant hGYS2/GN1 protein) (Homo sapiens (Human))
# Sequence (P54840 whole entry): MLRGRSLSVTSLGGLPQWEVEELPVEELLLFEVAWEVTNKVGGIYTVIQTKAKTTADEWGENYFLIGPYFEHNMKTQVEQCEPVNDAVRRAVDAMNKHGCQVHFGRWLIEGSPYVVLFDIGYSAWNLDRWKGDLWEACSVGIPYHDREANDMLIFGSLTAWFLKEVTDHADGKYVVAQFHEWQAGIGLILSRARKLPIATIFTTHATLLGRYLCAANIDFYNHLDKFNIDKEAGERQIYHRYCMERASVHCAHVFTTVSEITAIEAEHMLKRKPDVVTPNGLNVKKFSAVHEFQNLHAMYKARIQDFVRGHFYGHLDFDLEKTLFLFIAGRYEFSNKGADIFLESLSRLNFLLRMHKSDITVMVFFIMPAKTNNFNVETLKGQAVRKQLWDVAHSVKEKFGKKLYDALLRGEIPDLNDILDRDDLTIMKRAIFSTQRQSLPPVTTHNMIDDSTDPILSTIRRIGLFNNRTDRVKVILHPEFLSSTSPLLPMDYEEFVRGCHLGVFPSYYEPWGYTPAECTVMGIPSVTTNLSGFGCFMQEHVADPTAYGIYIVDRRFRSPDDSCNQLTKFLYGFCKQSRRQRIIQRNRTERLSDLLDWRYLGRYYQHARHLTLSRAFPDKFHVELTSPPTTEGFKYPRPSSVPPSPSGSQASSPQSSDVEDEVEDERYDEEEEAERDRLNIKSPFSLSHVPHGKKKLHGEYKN
# Sequence (P46976 whole entry partner): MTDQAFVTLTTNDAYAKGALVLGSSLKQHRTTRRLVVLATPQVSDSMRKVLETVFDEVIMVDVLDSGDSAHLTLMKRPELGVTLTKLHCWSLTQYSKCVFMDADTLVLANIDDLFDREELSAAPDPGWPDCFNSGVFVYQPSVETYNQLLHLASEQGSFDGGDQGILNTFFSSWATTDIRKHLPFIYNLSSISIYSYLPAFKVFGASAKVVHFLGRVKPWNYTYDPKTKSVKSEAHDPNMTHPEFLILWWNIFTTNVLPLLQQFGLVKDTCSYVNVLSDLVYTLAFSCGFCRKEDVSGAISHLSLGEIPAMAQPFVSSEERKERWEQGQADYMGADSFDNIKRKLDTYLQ
# PROTOCOL DESCRIPTION: GYS2 coupled enzyme assay (PK/LDH)
# COND: geometric mean of at least 2 assay runs on separate days, read-out: Avg_IC50
MEASURE NAME: IC50

>  <MOLECULE>
CCN(CC)c1cnn(CC(=O)N2C[C@H](F)C[C@H]2C(=O)N[C@@H](c2ccccc2)c2ccc(C3CC3)c(F)n2)n1 [Compound 319]

>  <SYSTEM UNDER TEST>
hGYS2 enzyme (recombinant hGYS2/GN1 protein) (Homo sapiens (Human))

>  <MEASURE NAME>
IC50

>  <RESULT>
> 100 µM

$$$$
>  <MOLECULE>
O=C(N[C@@H](c1ccccc1)c1ccc(C2CC(F)(F)C2)c(F)c1)[C@@H]1C[C@@H](F)CN1C(=O)CNC(=O)N1CCC1 [Compound 544]

>  <SYSTEM UNDER TEST>
hGYS2 enzyme (recombinant hGYS2/GN1 protein) (Homo sapiens (Human))

>  <MEASURE NAME>
IC50

>  <RESULT>
> 100 µM

$$$$
>  <MOLECULE>
CC(=O)N1CCC2(CCC(C(=O)N3C[C@H](F)C[C@H]3C(=O)N[C@@H](c3ccccc3)c3ccc(C(C)C)cc3)C2)CC1 (stereo partly drawn) [Compound 184]

>  <SYSTEM UNDER TEST>
hGYS2 enzyme (recombinant hGYS2/GN1 protein) (Homo sapiens (Human))

>  <MEASURE NAME>
IC50

>  <RESULT>
> 100 µM

$$$$
>  <MOLECULE>
Cc1ccn(CC(=O)N2C[C@H](F)C[C@H]2C(=O)N[C@@H](c2ccccc2)c2ccc(C(C)C)cc2)n1 [Compound 55]

>  <SYSTEM UNDER TEST>
hGYS2 enzyme (recombinant hGYS2/GN1 protein) (Homo sapiens (Human))

>  <MEASURE NAME>
IC50

>  <RESULT>
> 100 µM

$$$$
>  <MOLECULE>
CCn1cc(NCC(=O)N2C[C@H](F)C[C@H]2C(=O)N[C@@H](c2ccccc2)c2ccc(C3CC3)c(F)c2)nn1 [Compound 469]

>  <SYSTEM UNDER TEST>
hGYS2 enzyme (recombinant hGYS2/GN1 protein) (Homo sapiens (Human))

>  <MEASURE NAME>
IC50

>  <RESULT>
> 100 µM

$$$$

# evaluate next
IC50 reported for this molecule O=C(N[C@@H](c1ccccc1)c1ccc(C2CC2)c(F)c1)[C@@H]1C[C@@H](F)CN1C(=O)COC(=O)N1CCC1 [Compound 451] : > 100 µM
